Ref: patent US11413278B2

# ILS at 60 µM annotations
tested on: C. elegans; assay: C. elegans lifespan assays (liquid and plate); format: in vivo, Caenorhabditis elegans; conditions: Caenorhabditis elegans, 60 μM, in liquid, wild type, with FuDR, 2.5 × 10^9 bacteria/ml; read-out: relative change of mean lifespan vs control, Trial 2
Give your result in % as a bare value.

Sample answers from the record:
CC(C)(C)c1ccc(OCC(=O)Nc2ccc3c4c(cccc24)C(=O)NC3=O)cc1 [O22]: -2.3
CC1C(=O)C(C)C(c2cc(Cl)ccc2O)NC1c1cc(Cl)ccc1O (stereo not drawn) [O6]: 10.3
CCc1ccc(Oc2nc3ccccn3c(=O)c2/C=C(\C#N)C(=O)NC2CCCCC2)cc1 [Gr-5A]: -1.4
O=C(NCc1cccnc1)/C(=C/c1ccc(-c2ccc(Cl)cc2)o1)S(=O)(=O)c1ccccc1 [Gr-7C]: 10.1
CNC(=O)/C(C#N)=C/c1c(Oc2ccc(C(C)(C)C)cc2)nc2ccccn2c1=O [Gr-5D]: 5.8
O=C(NCc1cccnc1)/C(=C\c1cccc(Oc2ccccc2)c1)S(=O)(=O)c1ccccc1 [Gr-7A]: 16.2
Cc1ccc(NC(=O)c2ccc([N+](=O)[O-])o2)cc1C [Gr-1F]: 0.6
O=C(NCc1cccnc1)/C(=C\c1ccc(Br)cc1)S(=O)(=O)c1ccccc1 [Gr-7B]: 3.5

Please turn your attention to the following entry.
What ILS at 60 µM value was documented for this compound, CCCN1C/C(=C\c2ccc(F)cc2)C(=O)/C(=C/c2ccc(F)cc2)C1 [O15] ? 6.6

###

test system: FOXO3; test: qPCR analysis of FOXO3-regulated genes; format: cell-based, human; settings: score
readout-type: K = Sestrin induction

Sample answers from the record:
O=C(NCc1cccnc1)/C(=C/c1ccc(-c2ccc(Cl)cc2)o1)S(=O)(=O)c1ccccc1: 0
O=C(/C=C/c1cn(-c2ccccc2)nc1-c1cccnc1)c1ccccc1: 0
COC(=O)CCc1sc2c(c1[N+](=O)[O-])NC(=O)CCC2: 1
Oc1ncnc2sc3c(c12)CCC3: 0
COc1cccc(/C=C2\CN(C)C/C(=C\c3cccc(OC)c3OC)C2=O)c1OC: 0
N=C1S/C(=C\c2cn(-c3ccccc3)nc2-c2cccs2)C(=O)N1c1nccs1: 0

Query K = Sestrin induction on FOXO3 for CNC(=O)/C(C#N)=C/c1c(Oc2ccc(C(C)(C)C)cc2)nc2ccccn2c1=O 0

Query K = Sestrin induction on FOXO3 for COc1ccc(C(=O)/C=C/c2ccccc2Br)c(OC)c1 0

###

system: FOXO3; experiment: qPCR analysis of FOXO3-regulated genes; format: cell-based, human; details: Homo sapiens, 24 h; Assay 10(m); at 10 uM, qPCR; read-out: Induction of FOXO3-regulated genes: SOD2 normalized fold-change
readout-type: fold induction at 10 µM
// response body must contain only the number

Sample answers from the record:
CO/C(O)=C1\C(C)=NC2=C(C(=O)CC(c3cccs3)C2)C1c1ccc(F)c(F)c1 (centres unmarked) [O5]: 0.77
O=C(NCc1cccnc1)/C(=C/c1ccc(-c2ccc(Cl)cc2)o1)S(=O)(=O)c1ccccc1 [Gr-7C]: 2.67
O=C(NCc1cccnc1)/C(=C\c1cccc(Oc2ccccc2)c1)S(=O)(=O)c1ccccc1 [Gr-7A]: 1.78
O=C(/C(=C/c1ccc(Cl)cc1)c1nc2ccccc2[nH]1)c1ccccc1 [Gr-4D]: 1.2
COc1cc(-c2nc(C(N)=O)c3nc(O)n(-c4cccc(C)c4)c3n2)cc(Br)c1O [O9]: 1.15
CCCC(=O)Nc1ccc(-c2cn3cccc(C)c3n2)cc1 [O12]: 1.35
O=C(Nc1ccc(Cl)c(Cl)c1)c1ccc([N+](=O)[O-])o1 [Gr-1G]: 0.76
Oc1ncnc2sc3c(c12)CCC3 [O14]: 1.06

What fold induction at 10 µM value was documented for this compound, Oc1nc(-c2ccccn2)nc2c1Cc1cc(F)ccc1O2 [O24] ? 1.2

What fold induction at 10 µM value was documented for this compound, COc1cccc(/C=C2\CN(C)C/C(=C\c3cccc(OC)c3OC)C2=O)c1OC [O23] ? 2.04

What fold induction at 10 µM value was documented for this compound, O=C(CCCc1nnc2n3nc(-c4ccccc4)nc3c3ccccc3n12)N1CCOCC1 [O8] ? 1.07
